- tgt: human RIP1 kinase domain (2-375) (Homo sapiens (Human))
- Sequence (Q13546 2-375): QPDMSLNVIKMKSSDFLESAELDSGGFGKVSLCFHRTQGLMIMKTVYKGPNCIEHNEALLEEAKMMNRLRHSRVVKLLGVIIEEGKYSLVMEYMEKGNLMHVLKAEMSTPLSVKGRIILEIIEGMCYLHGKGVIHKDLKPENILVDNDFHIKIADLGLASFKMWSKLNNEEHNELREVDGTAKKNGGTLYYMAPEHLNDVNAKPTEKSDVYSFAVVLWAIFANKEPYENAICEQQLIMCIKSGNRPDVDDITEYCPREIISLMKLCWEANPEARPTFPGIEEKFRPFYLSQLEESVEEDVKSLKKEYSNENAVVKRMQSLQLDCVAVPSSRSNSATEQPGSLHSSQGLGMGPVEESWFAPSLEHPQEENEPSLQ
- experimental protocol: RIP1 kinase inhibition assay (biochemical, Transcreener ADP assay)
- test settings: RIP1 Ki, tight-binding apparent inhibition constant (Ki app, Morrison equation); 50 nM enzyme, 50 uM ATP, 2 hours incubation, fluorescence polarization
pKi: −log10 of the molar value.
Listed compounds paired with reported pKi
parameter: pKi

1. CN1C(=O)[C@@H](NC(=O)c2nc3n(n2)[C@H](c2ccccc2)C[C@@H]3F)CCn2nccc21 (racemic) [Example #38]; 7.62
2. Cc1cc2n(n1)CC[C@H](NC(=O)c1nc3n(n1)[C@@H](c1ccccc1)CC3(F)F)C(=O)N2C (racemic) [Example #41]; 7.46
3. CN1C(=O)[C@@H](NC(=O)c2nc3n(n2)[C@@H](c2ccccc2)C[C@@H]3F)COc2ccccc21 (mixture of isomers) [Example #32]; 7.85
4. Cc1cc2n(n1)CC[C@H](NC(=O)c1nc3n(n1)[C@H](c1ccccc1)C[C@@H]3F)C(=O)N2C (racemic) [Example #39]; 7.57
5. CN1C(=O)[C@@H](NC(=O)c2nc3n(n2)[C@H](c2ccccc2)C[C@@H]3F)COc2ccccc21 (single isomer, unassigned) [Example #30]; 7.74
6. CN1C(=O)[C@@H](NC(=O)c2nc3n(n2)[C@H](c2ccccc2)C[C@@H]3F)CCn2nccc21 (mixture of isomers) [Example #29]; 7.37
7. O=C(N[C@H]1CCc2cc(F)cc(F)c2NC1=O)c1nc2n(n1)[C@@H](c1ccccc1)C[C@@H]2F (mixture of isomers) [Example #31]; 7.82
